// provenance: PubChem BioAssay (NCI)

System: LOX IMVI melanoma
testProtocol: NCI-60 one-dose screen, 48 h (100 = growth as untreated, 0 = no growth, -100 = all killed)
experimentalConditions: 10 µM
The panel holds about 83,000 compounds, 20% with a hit somewhere; the sample as a whole holds those more often.
condition met if growth is below 80%. condition not met if not; exact matches included in condition not met.

>  <compound>
COc1cc(CNC(=O)C2CSC3(C)c4ccccc4C(=O)N23)cc(OC)c1OC (configuration not stated)

>  <classLabel>
condition not met

$$$$
>  <compound>
COc1ccc(CCN2CCC(Nc3nc4ccccc4n3Cc3ccc(F)cc3)CC2)cc1

>  <classLabel>
condition met

$$$$
>  <compound>
CC[N+](CC)=c1ccc2nc3c(cc(NCc4ccccc4)c4ccccc43)oc-2c1

>  <classLabel>
condition met

$$$$
>  <compound>
O=C(CN(C1CCCCC1)C1CCCCC1)Nc1ccc(S(=O)(=O)c2ccc(NC(=O)CN(C3CCCCC3)C3CCCCC3)cc2)cc1

>  <classLabel>
condition met

$$$$
>  <compound>
CN(C)CCOc1ccccc1NC1=C(Cl)C(=O)C(Nc2ccccc2OCCN(C)C)=C(Cl)C1=O

>  <classLabel>
condition met

$$$$

*Q* API: query returns whether the compound falls strictly under 80% in growth. Query: `COc1cc2cc(Oc3ccc(NC(=O)c4ccccc4)cc3)c(C)nc2cc1OC`
*A* condition not met

*Q* Please answer likewise for `CCCCC/C=C/C/C=C/CCCCCCCC1=NC(C)(C)CN1C(C)C`
*A* condition met

*Q* Please answer likewise for `Cn1cnc([N+](=O)[O-])c1/C=C1\Oc2ccc(Br)cc2C1=O`
*A* condition met

*Q* Please answer likewise for `CC(=O)Nc1ccc(S(=O)(=O)N/N=C(\C)c2ccc(C)cc2C)cc1`
*A* condition not met

*Q* Please answer likewise for `CCN(CC)CCN1c2nc3ccccc3cc2Sc2cc3ccccc3nc21`
*A* condition met

*Q* Please answer likewise for Cc1ccc(NCCN(C)CC(C)O)c2c(=O)c3ccccc3sc12 (configuration not stated)
*A* condition met

*Q* Please answer likewise for `COc1ccc(Nc2cnc3cc(NS(=O)(=O)c4ccc(C)cc4)ccc3n2)cc1`
*A* condition not met
